test: gradient 5% acetonitrile 3 min, to 50% in 2 min, to 85% in 15 min, held 3 min, 100 µL/min; conditions: column: Zorbax Extend-C18 2.1 x 50 mm; eluents: water / acetonitrile, 0.1% formic acid
quantity: RP-LC retention time (s)
Give just the numeric value; s need not be written.

Below, each entry is followed by its recorded RP-LC retention time result.
| molecule | RP-LC retention time / s |
| --- | --- |
| COc1ccc(C(=O)NC2CCN(c3ccc(F)cc3)C2=O)cc1F (stereo not given) | 806 |
| Cc1ccc(N2CC(C(=O)NCC(C)(O)C3CC3)CC2=O)cc1C (stereo not given) | 673 |
| CC(C)(C)CC(=O)N1CCc2nc(-c3ccccc3)ncc2C1 | 934 |
| Cn1nccc1C(=O)Nc1sccc1-c1nc2ccccc2s1 | 1280 |
| CCc1ccccc1NC(=O)CN1C(=O)NC2(CCC(C)CC2)C1=O (stereo not given) | 698 |

Moving on to the next molecule.
### Prompt Look at this molecule and give its reported RP-LC retention time. `O=C(Cn1cccc1-c1nc(-c2ccccc2)no1)Nc1ccc2c(c1)OCCO2`
### Response 1090

###

test: gradient 5% acetonitrile 3 min, to 50% in 2 min, to 85% in 15 min, held 3 min, 100 µL/min; conditions: column: Zorbax Extend-C18 2.1 x 50 mm; eluents: water / acetonitrile, 0.1% formic acid
quantity: RP-LC retention time
Field: value (include unit after the number)

Solved cases (5 shown):
| molecule | endpoint.value |
| --- | --- |
| COc1ccc(-c2csc(NC(=O)Cn3c(=O)oc4cc(Br)ccc43)n2)cc1 | 1070 s |
| CCC(=O)Nc1ccc(-n2cnc(C(=O)NC3CCCCC3)c2)nc1 | 731 s |
| CCOC(=O)c1ccc(NC(=O)C2CCN(S(=O)(=O)c3cn(CC)cn3)CC2)cc1 | 774 s |
| COCCO[C@H]1C(=O)N(C2CCN(S(C)(=O)=O)CC2)[C@H]1c1ccncc1 | 543 s |
| COC(=O)c1cc2c(=O)n(Cc3ccc(OC)c(OC)c3)ccc2nc1C | 760 s |

### Prompt For the molecule shown here, O=C(NC1CC1)C1CCCN(C(=O)c2ccccc2)C1 (centres undefined) , give the reported RP-LC retention time.
### Response 619 s

### Prompt # input molecule: `CCCS(=O)(=O)Nc1cccc(-c2cn3ccccc3n2)c1` ; wanted: its RP-LC retention time
### Response 608 s

### Prompt Which RP-LC retention time is reported for this molecule? `O=C(CN1c2ccc(F)cc2-c2ccccc2S1(=O)=O)NCc1cccnc1`
### Response 646 s

### Prompt If you can, please state the reported RP-LC retention time value of `CO[C@H]1C(=O)N(C(C)C)[C@H]1C1CCN(C(=O)Nc2ccc(C)c(C)c2)CC1` .
### Response 820 s

###

# RP-LC retention time values compiled below
experiment: gradient 5% acetonitrile 3 min, to 50% in 2 min, to 85% in 15 min, held 3 min, 100 µL/min; conditions: column: Zorbax Extend-C18 2.1 x 50 mm; eluents: water / acetonitrile, 0.1% formic acid

Examples from the recorded data:
| compound | endpoint.value |
| --- | --- |
| COc1ccc(Cl)cc1S(=O)(=O)N1CCC2(CC1)c1nccn1CCN2C | 646 s |
| COc1ccc(NC(=O)c2cn(CC3CCCO3)cc3c(=O)n(-c4ccccc4)nc2-3)cc1 (stereo not given) | 937 s |
| O=C(Cc1cccc(F)c1)NC(c1ccccc1)c1nnc(N2CCCC2)o1 (stereo not given) | 771 s |

### Prompt So what's the measured RP-LC retention time for this one? `O=C(CCNc1c(-c2cccc(F)c2)nc2cnccn12)NCc1ccccc1F`
### Response 742 s

### Prompt Give the measured RP-LC retention time of `O=C(Nc1ccc(Cl)cc1F)C1CCN(c2nccnc2Sc2ccccc2)CC1` .
### Response 1190 s

### Prompt What value of measured RP-LC retention time is listed for `Cc1ccc(-c2ccc3nn(Cc4nc(-c5ccc(Br)cc5)no4)c(=O)n3n2)cc1` ?
### Response 1100 s
